Target: T1, human TL1A (human, UniProt O95150 72-251, limits assumed)
T1 construct: also called tumor necrosis factor-like cytokine 1A; TNFSF15
T1 sequence (looked up): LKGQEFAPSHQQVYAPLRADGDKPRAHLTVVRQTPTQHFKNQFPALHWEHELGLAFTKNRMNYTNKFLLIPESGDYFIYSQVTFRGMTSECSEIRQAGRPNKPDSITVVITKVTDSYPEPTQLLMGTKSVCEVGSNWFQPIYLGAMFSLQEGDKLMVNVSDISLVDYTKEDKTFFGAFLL
Assay: ELISA titration on plate-coated human TL1A, unpurified culture supernatant
pKd: −log10 of the molar value.

- binder: "A193 (antibody, IgG1, V domains shown) VH: EVQLVQSGAEVKKPGASVKVSCKASGFDIQDTYMHWVKQRPGQGLEWIGRIDPASGHTKYDPKFQVRATITTDTSTSTAYLELSSLRSEDTAVYYCARSGGLPDVWGQGTTVTVSS VL: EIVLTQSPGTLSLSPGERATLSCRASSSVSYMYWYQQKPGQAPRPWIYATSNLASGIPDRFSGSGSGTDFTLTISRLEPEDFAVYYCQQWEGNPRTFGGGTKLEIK"
  pKd: 10.26
- binder: "A163 (antibody, IgG1, V domains shown) VH: QVQLVQSGAEVKKPGASVKVSCKASGFDIQDTYMHWVRQRPGQGLEWMGRIDPASGHTKYDPKFQVRVTITTDTSTSTAYMELSSLRSEDTAVYYCARSGGLPDVWGQGTTVTVSS VL: EIVLTQSPGTLSLSPGERATLSCRASSSVSYMYWYQQKPGQAPRLLIYATSNLASGIPDRFSGSGSGTDFTLTISRLEPEDFAVYYCQQWKGNPRTFGGGTKLEIK"
  pKd: 10.29
- binder: "A219 (antibody, V domains shown, IgG1) VH: QVQLVQSGAEVKKPGASVKVSCKASGFDIQDTYMHWVKQRPGQGLEWMGRIDPASGHTKYDPKFQVRVTITRDTSTSTVYLELSSLRSEDTAVYYCARSGGLPDVWGQGTTVTVSS VL: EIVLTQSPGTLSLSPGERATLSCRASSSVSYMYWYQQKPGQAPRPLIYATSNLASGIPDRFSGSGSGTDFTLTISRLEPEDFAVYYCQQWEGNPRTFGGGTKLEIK"
  pKd: 10.30
- binder: "A220 (antibody, IgG1, V domains shown) VH: QVQLVQSGAEVKKPGASVKVSCKASGFDIQDTYMHWVKQRPGQGLEWMGRIDPASGHTKYDPKFQVRVTMTRDTSTSTAYLELSSLRSEDTAVYYCARSGGLPDVWGQGTTVTVSS VL: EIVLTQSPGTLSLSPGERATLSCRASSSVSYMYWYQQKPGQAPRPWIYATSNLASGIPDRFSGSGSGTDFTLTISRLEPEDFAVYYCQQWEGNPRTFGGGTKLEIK"
  pKd: 10.30
- binder: "A224 (antibody, IgG1, V domains shown) VH: EVQLVQSGAEVKKPGASVKVSCKASGFDIQDTYMHWVKQAPGQGLEWMGRIEPASGHIKYDPKFQGRVTMTRDTSTSTVYMELSSLRSEDTAVYYCARSGGLPDWWGQGTTVTVSS VL: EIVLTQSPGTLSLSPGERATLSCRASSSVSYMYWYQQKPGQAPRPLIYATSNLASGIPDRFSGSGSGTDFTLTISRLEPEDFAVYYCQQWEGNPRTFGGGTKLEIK"
  pKd: 10.12

Where do the numbers come from? From patent US20260216326A1.
